From: PubChem BioAssay AID179

test system: CEM cells HIV-1 protection, formazan growth assay; test: NCI AIDS Antiviral Assay
# EC50 per record follows

Ask | For the molecule COc1cc(C2c3cc4c(cc3C(O)[C@H]3COC(=O)C23)OCO4)cc(OC)c1O (some centres undefined) , what EC50 is on record?
Reply | > 200 µM

Ask | Now consider CC1(C)C=CC2=C(O1)C(=O)c1ccccc1C2=O and answer again.
Reply | > 200 µM

Ask | Do the same for C=C1CN(S(=O)(=O)c2ccc(C)cc2)CCCN(C(=O)OC)CCCN(S(=O)(=O)c2ccc(C)cc2)C1 please
Reply | > 200 µM

Ask | Now the molecule Cc1cc(NC(=O)c2ccc(NC(=O)c3ccc(N)cc3)cc2)ccc1N=Nc1ccc2c(O)c(N=Nc3ccc(S(=O)(=O)O)cc3C)c(S(=O)(=O)O)cc2c1
Reply | 6.17 µM

* * *

test system: CEM cells HIV-1 protection, formazan growth assay; assay: NCI AIDS Antiviral Assay; conditions: measured here: growth of uninfected CEM cells
pIC50: −log10 of the molar value.
Please mark fulfilled if the recorded pIC50 is equal to or greater than 4, and not fulfilled if it falls below.

CSC12c3cc(C)n(-c4ccc(I)cc4)c3CC(C)(C)CN1C(=O)C2Oc1ccccc1 (stereo not drawn): fulfilled

Ask | Exam item: decide whether the reported pIC50 for CC(NC(=O)CNP(=O)(c1ccccc1)c1ccccc1)C(=O)NC(Cc1ccccc1)C(=O)OCc1ccccc1 (stereo not drawn) is at least 4.
Reply | fulfilled

Ask | Here is the next molecule: O=C1NC2(CCCCC2)C(=O)N1CCN(CCCl)CCCl
Reply | not fulfilled

Ask | And then Cc1[nH]c(N)c(C#N)c1Cc1ccccc1 , what is it?
Reply | not fulfilled

Ask | Follow-up item: CC(C)C1CC=CCC12C(=O)NC(=O)NC2=O (stereo not drawn)
Reply | not fulfilled

Ask | Now consider O=C1O[C@H]2[C@@H](I)[C@H]3C[C@H]2[C@H]1[C@H]3c1ccccc1 .
Reply | not fulfilled

Ask | Try this molecule too: COc1ccccc1NC(=O)CC(=O)N/N=C/c1ccc(N(CCC#N)S(=O)(=O)c2ccccc2)cc1
Reply | not fulfilled

Ask | What about this molecule? CC(C)CC(=O)NC(NC(C)C)(C(F)(F)F)C(F)(F)F
Reply | not fulfilled

Ask | Thanks! And C=CCN1CCC(C(=O)CC)(c2ccccc2)CC1 ?
Reply | not fulfilled

Ask | Next record, please: CCCCc1ccc(Nc2nc(=S)c3[nH]cnc3[nH]2)cc1
Reply | fulfilled

Ask | And the next one, CCc1cccc(C(C)C)c1NC(=O)C(=O)Nn1c(=S)[nH]c2ccccc2c1=O ?
Reply | not fulfilled

* * *

# EC50 listing for each entry below
tested on: CEM cells HIV-1 protection, formazan growth assay; assay: NCI AIDS Antiviral Assay
Where a SMILES comes first, the peptide text is derived from it. [ ]: non-standard residue; d: D form. The star is where a group is joined. X4 = CC(C)(C)c1cc(OCC(=O)*)ccc1Sc1c(O)cc(-c2ccccc2)oc1=O; NMeLeu(3R-OH) = CN[C@H](C(=O)O)[C@H](O)C(C)C; NMeL = CN[C@@H](CC(C)C)C(=O)O; NMeV = CN[C@H](C(=O)O)C(C)C; dNMeS = CN[C@H](CO)C(=O)O; Abu = CC[C@H](N)C(=O)O

// known answers, use as guide
O=C(CN1CCOCC1)NC1=Nc2ncccc2C(=O)NN1: > 200 µM
OC(/C=C/c1ccccc1)Cc1nc2ccccc2[nH]1 (configuration not stated): > 38 µM
NCC1OC(n2cnc3c(N)ncnc32)CC1O (configuration not stated): > 200 µM
CC[C@@H]1NC(=O)[C@H]([C@H](O)C(C)C)N(C)C(=O)[C@H](C(C)C)N(C)C(=O)[C@H](CC(C)C)N(C)C(=O)[C@H](CC(C)C)N(C)C(=O)[C@@H](C)NC(=O)[C@H](CCCCNC(=O)COc2ccc(Sc3c(O)cc(-c4ccccc4)oc3=O)c(C(C)(C)C)c2)NC(=O)[C@H](CC(C)C)N(C)C(=O)[C@H](C(C)C)NC(=O)[C@H](CC(C)C)N(C)C(=O)[C@@H](CO)N(C)C1=O (cyclo([Abu][dNMeS][NMeL]V[NMeL]K(X4)[dA][NMeL][NMeL][NMeV][NMeLeu(3R-OH)])): > 67.6 µM
CCOC(=O)Cn1c(=O)[nH]c(=O)c2[nH]cnc21: > 1050 µM

Ask | Requested field: EC50. Item: CN1C/C(=C\c2cccs2)C2=NN(C)C(c3cccs3)C2C1 (configuration not stated)
Reply | > 200 µM

Ask | Do the same for O=C1C(c2ccccc2)CS(=O)(=O)CC1c1ccccc1 (configuration not stated) please
Reply | > 120 µM

* * *

tested on: CEM cells HIV-1 protection, formazan growth assay; experiment: NCI AIDS Antiviral Assay
pEC50: −log10 of the molar value.
readoutKind: pEC50

Example entries begin here.
C=C1CC(COc2cc(=O)oc3ccccc23)(c2ccccc2)OC1=O (configuration not stated): < 3.70
CCn1c(SCC(=O)NNC(=S)Nc2ccc(C)cc2)nc2ccccc2c1=O: < 3.70
O=C1CCCC12CCOC2=O (configuration not stated): < 2.79

Ask | Which pEC50 is listed for CC(=O)Nc1ccc(/C=N/Nc2nnc(N/N=C/c3ccc(NC(C)=O)cc3)c3ccccc23)cc1 ?
Reply | < 3.70

Ask | Now try O=C(OCc1ccccc1)/C(c1ccccc1)=[N+]1/C(=S)Nc2ccc([N+](=O)[O-])cc21 .
Reply | < 3.70

Ask | And the next one, CCN(CC)CCC(=O)c1ccc(Cl)c(Cl)c1 ?
Reply | < 2.30

Ask | # iterate: CC(C)=CCN1CC(C)C(=O)Nc2cc(Cl)ccc21 (configuration not stated)
Reply | < 3.88

* * *

test system: CEM cells HIV-1 protection, formazan growth assay; test: NCI AIDS Antiviral Assay; settings: measured here: growth of uninfected CEM cells
readoutKind: IC50 (µM)
Numbers only here, please. The scale is µM.

N#Cc1c(-c2ccc(Cl)cc2)c(C#N)c(=O)n(NS(=O)(=O)c2ccccc2)c1-c1ccccc1: 32.4
Nc1nn2c(=O)c3ccccc3nc2s1: 89.1
COC(=O)C(=O)C(C(=O)C(=O)Nc1ccc(OC)cc1[N+](=O)[O-])c1nc2ccc([N+](=O)[O-])cc2[nH]c1=O (stereo not drawn): 170
CC1=C(C#N)C(=N)OC1(C)C1CC(=O)C=CC1=O (stereo not drawn): 10.5
CC(C)(C)OC(=O)NC(CSCc1ccc(C(=O)c2ccccc2)cc1)C(=O)O (stereo not drawn): 50.1

Ask | Given O=C(CN1CCOCC1)NC1=Nc2ncccc2C(=O)NN1 , state its recorded IC50.
Reply | 115

Ask | // repeat for COc1cc(O)c2c(=O)c3c(C)cccc3n(C)c2c1 and report
Reply | 72.4

Ask | What do you get for O=C1/C(=C/c2cccc(O)c2)SC(=S)N1/C=C\c1nc2ccccc2[nH]c1=O ?
Reply | 81.3

Ask | What do you have for O=C1CSC(c2c[nH]c3ccccc23)N1c1cccc([N+](=O)[O-])c1 (stereo not drawn) ?
Reply | 21.9

Ask | Please give the result for CCC(O)(Cc1ccccc1)C(C(=O)O)c1ccccc1 (stereo not drawn) too.
Reply | 339

Ask | How about this molecule: O=C(O)CC1OCC=C2CN3CCC45C6=CC(=O)C(=O)C([N+](=O)[O-])=C6NC4C1C2CC35 (stereo not drawn)
Reply | 28.2

Ask | Lookup COC1/C=C/OC2(C)Oc3c(C)c(O)c4c(O)c(c(/C=N/OC/C=C(\C)CCC=C(C)C)c(O)c4c3C2=O)NC(=O)C(C)=C/C=C/C(C)C(O)C(C)C(O)C(C)C(OC(C)=O)C1C (stereo not drawn)
Reply | 4.47

Ask | Continue with Cc1cn(C2CC(ONC(N)=O)C(CO[Si](C)(C)C(C)(C)C)O2)c(=O)[nH]c1=O (stereo not drawn)
Reply | 105

Ask | Same read-out for O=S(Cl)C(Cl)=C(Cl)Cl (stereo not drawn) ?
Reply | 40.7

Ask | Another molecule to check: CN(/N=C/c1ccc(Cl)c(Cl)c1)C1=NCCN1
Reply | 16.2

Ask | For C=CS(=O)(=O)c1c2cc(OC)ccc2nc2ccc(OC)cc12 then?
Reply | 2.88

Ask | Then Cn1c2c(c3ccccc31)CCN(CCCCN1CCCCC1)C2=O ?
Reply | 58.9

Ask | Do the same for C[C@H]1CC[C@@H]2[C@@H](C)C[C@H]3[C@@H]4C(C)(C)OC(=O)[C@]4(C)C(=O)[C@@]23C1=O please
Reply | 77.6

Ask | Same thing, different molecule: CCCCNC(=S)/N=C/c1c(O)c2ccccc2oc1=O
Reply | 182

Ask | Next record, please: Cc1ccc(S(=O)(=O)N/N=C2/CC3CCC4CC2CC34)cc1 (stereo not drawn)
Reply | 79.4

Ask | Same read-out for CC(C)CCCC(C)[C@H]1CC[C@H]2[C@@H]3CC[C@H]4C[C@@H](CCC=C(c5cc(Cl)c(O)c(C(=O)O)c5)c5cc(Cl)c(O)c(C(=O)O)c5)CC[C@]4(C)[C@H]3CC[C@]12C (stereo partly drawn) ?
Reply | 129
